Attribution: BigSolDB 2.1

# condition.parameters: in ethanol, 283.15 K
experimental.readout: solubility (mole fraction)
Lab note: record just the number, no unit beside it.

Supply recorded solubility (mole fraction) for Nc1nnc[nH]1 here.
0.0112

###

# condition.parameters: in acetonitrile, 288.15 K
experimental.readout: solubility (mole fraction)
Lab note: record just the number, no unit beside it.

Supply recorded solubility (mole fraction) for Nc1nnc[nH]1 here.
0.000871

###

# condition.parameters: in ethanol, 290.65 K
experimental.readout: solubility (mole fraction)

Supply recorded solubility (mole fraction) for Nc1nnc[nH]1 here.
0.0165

###

# condition.parameters: in acetone, 303.15 K
experimental.readout: solubility (mole fraction)
Lab note: record just the number, no unit beside it.

Supply recorded solubility (mole fraction) for Nc1nnc[nH]1 here.
0.0095

###

# condition.parameters: in methanol, 305.65 K
experimental.readout: solubility (mole fraction)
Lab note: record just the number, no unit beside it.

Supply recorded solubility (mole fraction) for Nc1nnc[nH]1 here.
0.0574

###

# condition.parameters: in NMP, 305.65 K
experimental.readout: solubility (mole fraction)
Lab note: record just the number, no unit beside it.

Supply recorded solubility (mole fraction) for Nc1nnc[nH]1 here.
0.215
